Each record here notes measured protein stability index.
B1: HESX1 (parent)
chain: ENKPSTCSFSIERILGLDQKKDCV

# Variants of: B1
# assay_explanation: protein stability index of a GFP-peptide fusion (GPS, HEK-293T) (PSI 1-6); higher = more stable;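 note: lentivirally expressed fusions sorted by FACS into six bins by GFP to DsRed ratio, PSI derived from sequencing read proportions per bin multiplied by bin number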
# protocol_conditions: c terminus: a fixed tail appended

Completed entries (count: 3):
residue_string="ENKPSTCSFSIERILGLDQKKDCC [V24C]" measurement_kind="protein stability index" endpoint_result=3.49
residue_string="ENKPSTCSFSIERILGLDQKKDMV [C23M]" measurement_kind="protein stability index" endpoint_result=2.83
residue_string="ENKPSTCSFSIERILRLDQKKDCV [G16R]" measurement_kind="protein stability index" endpoint_result=2.23

Give reported protein stability index value for EKKPSTCSFSIERILGLDQKKDCV [N2K] 3.37
